Source listed as patent US5830885A.

# Experimental target: calf thymus VDR (Bos taurus, UniProt Q28037)
# Construct: from the calf thymus VDR; from tissue; host or cells: calf thymus
# Sequence (Q28037 whole entry): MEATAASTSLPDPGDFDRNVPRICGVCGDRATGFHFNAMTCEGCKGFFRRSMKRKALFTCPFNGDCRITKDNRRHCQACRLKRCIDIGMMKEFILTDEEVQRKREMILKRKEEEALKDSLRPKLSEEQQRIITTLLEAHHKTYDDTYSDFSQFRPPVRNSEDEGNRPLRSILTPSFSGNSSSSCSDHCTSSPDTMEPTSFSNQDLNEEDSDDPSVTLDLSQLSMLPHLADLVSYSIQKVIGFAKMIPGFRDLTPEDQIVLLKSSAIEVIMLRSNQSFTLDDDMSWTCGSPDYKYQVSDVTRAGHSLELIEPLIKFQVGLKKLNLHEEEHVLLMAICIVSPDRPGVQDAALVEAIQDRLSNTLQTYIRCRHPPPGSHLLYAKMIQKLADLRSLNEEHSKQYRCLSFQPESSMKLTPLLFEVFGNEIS
# Assay summary: VDR binding assay, displacement of [^3 H]-1,25(OH)2 D3 from VDR
# Reported conditions: relative to calcitriol
Measured attribute: VDR binding affinity relative to that of calcitriol

// solved cases for VDR binding affinity relative to that of calcitriol follow
* C=C1/C(=C\C=C2/CCC[C@]3(C)[C@@H]([C@@H](C)CSc4cccc(C(C)(C)O)c4)CC[C@@H]23)C[C@@H](O)C[C@@H]1CO | less than 10^-3
* C=C1/C(=C\C=C2/CCC[C@]3(C)C([C@H](C)CC#CC(C)(C)O)=CC[C@@H]23)C[C@H](O)C[C@H]1CO | ~ 10^-3
* C=C1/C(=C\C=C2/CCC[C@]3(C)[C@@H]([C@H](C)/C=C/C=C/C(O)(CC)CC)CC[C@@H]23)C[C@H](O)C[C@H]1CO | ~ 10^-3
* C=C1/C(=C\C=C2/CCC[C@]3(C)[C@@H]([C@@H](C)CSc4cccc(C(C)(C)O)c4)CC[C@@H]23)C[C@H](O)C[C@H]1CO | less than 10^-3

## Task Quick one: give measured VDR binding affinity relative to that of calcitriol for `C=C1/C(=C\C=C2/CCC[C@]3(C)[C@@H]([C@@H](C)COCCCC(C)(C)O)CC[C@@H]23)C[C@@H](O)C[C@@H]1CO`
## Result less than 10^-3

## Task Check the records and state VDR binding affinity relative to that of calcitriol for `C=C1/C(=C\C=C2/CCC[C@]3(C)[C@@H]([C@@H](C)OCCCC(O)(CC)CC)CC[C@@H]23)C[C@H](O)C[C@H]1CCF`
## Result ~ 10^-3

## Task Read the entry `C=C1/C(=C\C=C2/CCC[C@]3(C)[C@@H]([C@@H](C)COCCCC(C)(C)O)CC[C@@H]23)C[C@H](O)C[C@H]1CO` and write its reported VDR binding affinity relative to that of calcitriol.
## Result less than 10^-3

* * *

# Experimental target: calf thymus VDR (Bos taurus)
# Construct: from the calf thymus VDR; from tissue; host or cells: calf thymus
# Assay summary: VDR binding assay, displacement of [^3 H]-1,25(OH)2 D3 from VDR
# Reported conditions: Table 6; calf thymus VDR
Measured attribute: Amount Bound (amount that results in 50% displacement of [^3 H]-1,25(OH)2 D3 from VDR) (ng)

• C=C1/C(=C\C=C2/CCC[C@]3(C)[C@@H]([C@@H](C)CSc4cccc(C(C)(C)O)c4)CC[C@@H]23)C[C@@H](O)C[C@@H]1CO [JK 277-1] = 1450

[P] C=C1/C(=C\C=C2/CCC[C@]3(C)[C@@H]([C@@H](C)CSc4cccc(C(C)(C)O)c4)CC[C@@H]23)C[C@H](O)C[C@H]1CO [JK 277-2]
[Q] C=C1/C(=C\C=C2/CCC[C@]3(C)[C@@H]([C@@H](C)COCCCC(C)(C)O)CC[C@@H]23)C[C@H](O)C[C@H]1CO [JK 276-2]
[R] C=C1/C(=C\C=C2/CCC[C@]3(C)[C@@H]([C@@H](C)COCCCC(C)(C)O)CC[C@@H]23)C[C@@H](O)C[C@@H]1CO [JK 276-1]
## Task Please list the entries, largest Amount Bound (amount that results in 50% displacement of [^3 H]-1,25(OH)2 D3 from VDR) first. Quick reminder: the answer is the labels in the order asked.
## Result R, P, Q
